Reference source: a melting point compilation (Tetko et al.; mined from patent text by program, amines drawn as free bases though some values may be those of a salt)

Residues, ends and D or L forms follow the SMILES beside them. *: point of attachment. Boc = CC(C)(C)OC(=O)*; Bn = c1ccc(C*)cc1
// reported melting point for each item listed

{"molecule": "CC(C)(CBr)c1cc(Cl)nnc1Cl", "melting point": "86.5 to 88.5 °C"}
{"molecule": "CON=C(OCC(=O)OC)C(Cl)=Cc1cc(-n2ncc(C(F)(F)F)c(C)c2=O)c(F)cc1Cl", "melting point": "75 to 76 °C"}
{"molecule": "O=c1[nH]nc2c3cc(F)ccc3[nH]c(=O)n12", "melting point": "> 350 °C"}
{"molecule": "OCc1ccc2cc(O)ccc2c1", "melting point": "179 to 181 °C"}
{"molecule": "COc1c(C)cnc(CSc2nc3cc4c(cc3[nH]2)OC(F)C(F)(F)O4)c1C (centres undefined)", "melting point": "138 to 140 °C"}
{"molecule": "COC(=O)C(CC(C)C)NC(=O)C(C)NC(=O)C(Cc1ccc(OCc2ccccc2)cc1)NC(=O)C(COCc1ccccc1)NC(=O)OC(C)(C)C (centres undefined) (Boc-S(Bn)Y(Bn)AL-OMe; configuration not given here)", "melting point": "67 to 71 °C"}
{"molecule": "COc1ccc(COc2nn(Cc3ccccc3)cc2CO)cc1OCc1nc(-c2ccco2)oc1C", "melting point": "108 to 109 °C"}
{"molecule": "CC=Cc1nc2ccc(C)cc2c(=O)[nH]1", "melting point": "232 to 233 °C"}
{"molecule": "CCOC(=O)c1c(Cn2cncn2)nc2sc3c(c2c1-c1ccc(OC)c(OC)c1)CCNC3", "melting point": "164 to 165 °C"}
{"molecule": "CCCC1(C(C)C)NC(=S)N(c2cc(Cl)cc(Cl)c2)C1=O (centres undefined)", "melting point": "160 °C"}
{"molecule": "CN1C(=O)N(CC(COc2ccc(-c3ccc(S(C)(=O)=O)cc3)cc2)N(O)C=O)C(=O)C1(C)C (centres undefined)", "melting point": "174 to 175 °C"}
{"molecule": "CCOC(=O)c1ccc(CNC(=O)c2csc3nc(C(=O)OCC)[nH]c(=O)c23)cc1", "melting point": "227 to 228 °C"}
{"molecule": "Cc1cc(C)cc(NCc2ccc3nc(NC4CCN(CC(N)=O)CC4)n(Cc4nc(C)ccc4O)c3c2)c1", "melting point": "206 °C"}
{"molecule": "Cc1cc(C(C)(C)C)c(O)c(N)c1N", "melting point": "129 to 136 °C"}
{"molecule": "Cc1oc(-c2ccccc2)nc1COc1cccc(CON=C(CCC(=O)O)c2ccccc2)c1", "melting point": "108 to 109 °C"}
{"molecule": "Cc1ccc(-c2nc3ccccc3o2)c(F)c1", "melting point": "115 to 117 °C"}
{"molecule": "CC(=O)Oc1c(C(C)(C)C)cc(C#N)c(C)c1C(=O)Nc1ccc(C#N)cc1C(F)(F)F", "melting point": "171 to 172 °C"}
{"molecule": "C=Cc1ccc(CSC2C(=O)N(c3c(Cl)cc(Cl)cc3Cl)N=C2Nc2cc(NC(C)=O)ccc2Cl)cc1 (centres undefined)", "melting point": "240 °C"}
{"molecule": "O=C(c1ccc([N+](=O)[O-])cc1)N1CCC[C@@H]2CCCC[C@H]21 (relative stereo)", "melting point": "84 to 87 °C"}
